# Experimental Target: T1, PUF4 RNA-binding domain (Saccharomyces cerevisiae, UniProt P25339 537-888)
# T1 sequence: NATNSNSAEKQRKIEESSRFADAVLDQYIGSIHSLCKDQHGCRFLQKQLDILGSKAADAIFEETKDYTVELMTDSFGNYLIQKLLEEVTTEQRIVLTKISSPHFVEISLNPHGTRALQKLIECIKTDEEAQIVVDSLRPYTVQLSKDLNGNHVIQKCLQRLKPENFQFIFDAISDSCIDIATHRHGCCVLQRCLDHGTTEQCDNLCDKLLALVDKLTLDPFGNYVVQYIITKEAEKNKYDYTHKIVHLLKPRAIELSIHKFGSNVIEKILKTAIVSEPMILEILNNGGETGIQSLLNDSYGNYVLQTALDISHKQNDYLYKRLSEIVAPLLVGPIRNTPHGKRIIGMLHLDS
# Test Description: Mg; RNA-MaP; 20 mM Na-HEPES pH 7.4, 30 mM KOAc, 0.75 mM MgCl2, 0.1% Tween-20, 5% glycerol, 0.1 mg/mL BSA, 2 mM DTT; 25 C; 0.0125-409.6 nM protein
# Condition Info: tags: N-His6-TEV cleaved; C-SNAP kept, Cy3B-labelled; label: tethered on chip by stalled RNA polymerase
Item-by-item account of Kd

Binder	Kd (nM)
UCUCUUUGUACCGUCUCUCUU (ssRNA) [Ic_S1_P4E.1_K4.1_C4.1_H4.1_A4.1_[T5C]_[A6C]_[T7G]_F4.1_[A9C]_T4.1]	1140
Id_ii_S2_P4E.2_K4.1_C4.2_[C-2T]_H4.1_A4.1_F4.1_T4.2 (ssRNA) RNA: UUUGAUUAAUAUGAUAUCGUUCUUUCUUUUGUAUAUUAGUUUCUUUCUCGAUAUCAUAUUAAUCUUU	0.456
UCUCUUCUUGUAUAUAUUCUAUCUCUU (ssRNA) [Ie_S1_P3E.2_K3.1_C3.2_H3.1_A3.1_F3.1_[+8TTC]_T3.2]	4.4
